All values here come from ChEMBL document CHEMBL1201862.

# System: NCI-H522
# assay.remarks: NCI tumour cell line growth inhibition, 48 h
Activity calls are given as the source filed them. Rule as the data show it: active = GI50 up to about 1.1 µM and inactive = higher.
Exercise: for every item that follows, state its recorded GI50.

Asked: Give a short answer stating reported GI50 for `Cc1nc(Nc2ccccc2)sc1C(=O)CC(=O)C(=O)Nc1c(C(C)C)cccc1C(C)C` .
Given back: > 100 µM (inactive)

Asked: Give a short answer stating reported GI50 for `Oc1c(Cl)cc(CN(Cc2cc(Cl)c(O)c(Cl)c2)C2CCCCC2)cc1Cl` .
Given back: > 100 µM (inactive)

Asked: Give a short answer stating reported GI50 for COCCCN1C(=O)C2c3[nH]c4ccccc4c3C3CCC(C(C)(C)C)CC3C2C1=O (stereo unspecified) .
Given back: 21.7 µM (inactive)

Asked: Give a short answer stating reported GI50 for `O=C1CCCc2c(O)ccc(O)c21` .
Given back: 12.6 µM (inactive)

Asked: Give a short answer stating reported GI50 for `O=C(O)/C(O)=C1/C=C(c2ccccc2)c2ccccc21` .
Given back: 16.9 µM (inactive)

Asked: Give a short answer stating reported GI50 for `CN(N=O)c1nc2c(C(N)=O)ncn2s1` .
Given back: 76.4 µM (inactive)

Asked: Give a short answer stating reported GI50 for `COc1ccc(-n2c3c(c4c(CN(C)C)c(O)ccc42)C(=O)c2ccccc2C3=O)cc1` .
Given back: 12.3 µM (inactive)

Asked: Give a short answer stating reported GI50 for `COc1ccc([C@]23CCN4COC[C@@H]([C@H]42)C2(CC3)OCC(C)(C)CO2)cc1OC` .
Given back: > 100 µM (inactive)

Asked: Give a short answer stating reported GI50 for `CN(N=O)C(=O)ON1C(=O)CCC1=O` .
Given back: > 100 µM (inactive)

Asked: Give a short answer stating reported GI50 for `COc1ccc(/C=C2\N=C(N3CCOCC3)NC2=O)cc1` .
Given back: > 100 µM (inactive)

Asked: Give a short answer stating reported GI50 for CCOC(=O)CC1C(O)C(=O)N(C)C1c1ccccc1 (stereo unspecified) .
Given back: > 100 µM (inactive)

* * *

# System: RPMI-8226
# assay.remarks: NCI tumour cell line growth inhibition, 48 h
Activity calls are given as the source filed them. No stated cut-off is given here; in the data, active = GI50 up to about 1.1 µM and inactive = higher.
Please answer using one outcome listed in 1 (yes) = active, 0 (no) = inactive

Asked: Please indicate how the test categorized `CC1=CC(=O)c2cccc(O)c2C1=O` .
Given back: 0 (no)

Asked: Please indicate how the test categorized `O=c1cc(-c2ccccc2)[nH]c2c(F)ccc(F)c12` .
Given back: 0 (no)

Asked: Please indicate how the test categorized `C[C@H]1O[C@@H](O[C@H]2[C@@H](O)C[C@H](O[C@H]3[C@@H](O)C[C@H](O[C@H]4CC[C@@]5(C)[C@H](CC[C@@H]6[C@@H]5CC[C@]5(C)[C@@H](C7=CC(=O)OC7)[C@@H](O)C[C@]65O)C4)O[C@@H]3C)O[C@@H]2C)C[C@H](O)[C@@H]1O` .
Given back: 1 (yes)

Asked: Please indicate how the test categorized COc1cc(C(=O)CC2OC(=O)C(Cl)=C2Cl)ccc1Cl (centres undefined) .
Given back: 0 (no)

Asked: Please indicate how the test categorized CC(C)(C)C(=O)N1C(C(=O)O)Cc2ccccc2[C@@H]1Cc1ccccc1 (some centres undefined) .
Given back: 0 (no)

Asked: Please indicate how the test categorized `NC1=NNC(=O)c2nnc3c(C(=O)O)cnn3c2S1` .
Given back: 0 (no)

Asked: Please indicate how the test categorized O=C1CCCC1C(O)(C(F)(F)Cl)C(F)(F)Cl (centres undefined) .
Given back: 0 (no)

Asked: Please indicate how the test categorized `COC(=O)/C=C1\C(=O)Nc2ccc(Br)cc21` .
Given back: 0 (no)

Asked: Please indicate how the test categorized `Cc1oc2nc1C(=O)NCc1nc(cs1)C(=O)N[C@H](C(C)C)c1nc(cs1)C(=O)N[C@H]2C` .
Given back: 0 (no)

* * *

# Tested on: SK-MEL-2
# assay.remarks: NCI tumour cell line growth inhibition, 48 h
Activity calls are given as the source filed them. No stated cut-off is given here; in the data, active = GI50 up to about 1.1 µM and inactive = higher.
assay.readout: GI50

Asked: Give a short answer stating reported GI50 for `Cc1nc2sc(C(=O)c3ccc(Cl)cc3)c(N)c2c(-c2ccccc2Cl)c1C(=O)Nc1ccccc1` .
Given back: 3.08 µM (inactive)

Asked: Give a short answer stating reported GI50 for `Cc1nnc(-n2c(O)cc(=O)n(-c3ccccc3)c2=S)nc1/C=C/c1ccc(N(C)C)cc1` .
Given back: 10.9 µM (inactive)

Asked: Give a short answer stating reported GI50 for `CN(CCc1ccc(N)cc1)[C@H]1CCCC[C@H]1N1CCCC1` .
Given back: > 100 µM (inactive)

Asked: Give a short answer stating reported GI50 for `CN(C)c1ccc(/C=N/NC2=N/C(=C\c3ccco3)C(=O)N2)cc1` .
Given back: > 100 µM (inactive)

Asked: Give a short answer stating reported GI50 for `O=C1CC(=O)NC(NN2C(=O)/C(=C/c3ccc(Cl)c(Cl)c3)N=C2c2ccccc2)=N1` .
Given back: 14.1 µM (inactive)

Asked: Give a short answer stating reported GI50 for `Cc1c2ccncc2c(C)c2c1[nH]c1ccc(OCCN(C)C)cc12` .
Given back: 0.658 µM (active)

Asked: Give a short answer stating reported GI50 for `COC(=O)[C@H](C)N1C(=O)N[C@@H](C(C)C)C1=O` .
Given back: > 100 µM (inactive)

Asked: Give a short answer stating reported GI50 for CCC(CCCC[C@@H]1CC[C@H]2CC(=O)C[C@@H]12)OC (stereo not given in full) .
Given back: > 100 µM (inactive)

Asked: Give a short answer stating reported GI50 for `Cc1ccc2c(c1)CN(C(=O)CCC(=O)OCc1ccccc1)c1ccc(C)cc1CN2C(=O)CCC(=O)OCc1ccccc1` .
Given back: > 100 µM (inactive)

Asked: Give a short answer stating reported GI50 for COc1ccccc1CC1(O)OC(=O)c2ccccc21 (stereo not given) .
Given back: > 100 µM (inactive)

* * *

# Tested on: SR
# assay.remarks: NCI tumour cell line growth inhibition, 48 h
The source made the active and inactive calls. Rule as the data show it: active = GI50 up to about 1.1 µM and inactive = higher.
Please answer using one outcome listed in active, inactive

Asked: Please indicate how the test categorized `COc1cc(Nc2ccc3c(c2)CCC3)nc(OC)n1` .
Given back: inactive

Asked: Please indicate how the test categorized `CN(C)c1ccc(/C=C2\C[C@H]3[C@@H]4CCC5=CC(=O)CC[C@]5(C)[C@H]4CC[C@]3(C)C2=O)cc1` .
Given back: inactive

Asked: Please indicate how the test categorized `Nc1nc(NCc2ccccc2)cc(NCc2ccccc2)n1` .
Given back: inactive

Asked: Please indicate how the test categorized CCOC(=O)C(C[Si](C)(C)C)P(=O)(OCC)OCC (configuration not stated) .
Given back: inactive

Asked: Please indicate how the test categorized `CC1(C)CC23CC(C)(C)c4cccc(c42)OCc2ccc4ccc5ccc(nc5c4n2)COc2cccc1c23` .
Given back: inactive

Asked: Please indicate how the test categorized `N#Cc1[nH]c(=O)n(-c2cccc3ccccc23)c1N` .
Given back: inactive

Asked: Please indicate how the test categorized C=C1C(=O)O[C@@H]2/C=C(/C)[C@@H](OC(C)=O)C/C=C(\C)C(O)[C@@H](OC(=O)/C(C)=C\C)C12 (some centres not stated) .
Given back: inactive

Asked: Please indicate how the test categorized `CC(=O)Oc1ccc2c(c1)O/C(=C\c1ccc(N(C)C)cc1)C2=O` .
Given back: inactive

Asked: Please indicate how the test categorized CN1C(=O)N(C)C2(CCN(CC(CC3OCCO3)c3ccc(F)cc3)CC2)C1=O (configuration not stated) .
Given back: inactive

Asked: Please indicate how the test categorized `Nc1ccc2nc(-c3ccccn3)c(-c3ccccn3)nc2c1` .
Given back: inactive

Asked: Please indicate how the test categorized `COc1ccc(-n2c3c(c4c(CN(C)C)c(O)ccc42)C(=O)c2ccccc2C3=O)cc1` .
Given back: inactive

Asked: Please indicate how the test categorized `O=C1NC(=O)C(c2c[nH]c3cc(Br)ccc23)=C1c1cnc[nH]1` .
Given back: inactive

Asked: Please indicate how the test categorized `Cc1sc2nc(-c3ccc(Cl)c([N+](=O)[O-])c3)c(/C=N/NC(=N)N)n2c1C` .
Given back: active

Asked: Please indicate how the test categorized `c1ccc2c(c1)Nc1ccccc1[P+]21c2ccccc2Nc2ccccc21` .
Given back: active

Asked: Please indicate how the test categorized `c1ccc(CN2CCC(=NN3CCCCC3)CC2)cc1` .
Given back: inactive

Asked: Please indicate how the test categorized CN1CCN(Cc2ccccc2)CC1CC#N (configuration not stated) .
Given back: inactive

Asked: Please indicate how the test categorized `COC(=O)Oc1nn(C(=O)OC)c(=O)c2ccccc12` .
Given back: inactive

Asked: Please indicate how the test categorized `CC(C)=CCC[C@@H](C)C1=C(O)C(=O)C(C)=C(Nc2ccccc2I)C1=O` .
Given back: inactive

Asked: Please indicate how the test categorized CCN1CCC(O)(c2ccc(O)cc2)C(C(=O)c2ccc(O)cc2)C1 (configuration not stated) .
Given back: inactive

Asked: Please indicate how the test categorized `Clc1ccccc1C(Nc1cnccn1)Nc1cnccn1` .
Given back: active

Asked: Please indicate how the test categorized `O=C(c1ccco1)N(C(=S)N1CCN(c2ccccn2)CC1)C1CCCCC1` .
Given back: inactive

Asked: Please indicate how the test categorized `O=C1CCCc2c(O)ccc(O)c21` .
Given back: inactive
